Reported SI A2780Cis values follow for various compounds
# Test system: A2780Cis (cisplatin-resistant human ovarian cancer)
# test: In vitro cytotoxicity, SRB assay, A2780Cis
# Format: cell-based
The answer should be a number; do not append a unit.

{"smiles-text": "CC[C@@H](C(=O)[C@@H](C)[C@@H](O)[C@H](C)[C@@H]1O[C@@H]([C@@H](CC)C(=O)O)CC[C@@H]1C)[C@H]1O[C@]2(C=C[C@@H](NC(=O)OCCC(C)(C)O)[C@]3(CC[C@@](C)([C@H]4CC[C@](O)(CC)[C@H](C)O4)O3)O2)[C@H](C)C[C@@H]1C", "SI A2780Cis": 30.0}

Report the value of SI A2780Cis obtained on A2780Cis (cisplatin-resistant human ovarian cancer) for CC[C@@H](C(=O)[C@@H](C)[C@@H](O)[C@H](C)[C@@H]1O[C@@H]([C@@H](CC)C(=O)O)CC[C@@H]1C)[C@H]1O[C@]2(C=C[C@@H](NC(=O)C(=O)NCCCc3ccccc3)[C@]3(CC[C@@](C)([C@H]4CC[C@](O)(CC)[C@H](C)O4)O3)O2)[C@H](C)C[C@@H]1C .
29.6

---

# Tested on: MIA PaCa-2 (human pancreatic cancer)
# test: cells
# Type: cell-based
# measurement-setup: Table 4; selectivity coefficient vs normal BALB/3T3 fibroblasts
quantity: SI MIA PaCa-2
The answer should be a number; do not append a unit.

// solved cases for SI MIA PaCa-2 follow
{"smiles-text": "CC[C@@H](C(=O)[C@@H](C)[C@@H](O)[C@H](C)[C@@H]1O[C@@H]([C@@H](CC)C(=O)O)CC[C@@H]1C)[C@H]1O[C@]2(C=C[C@@H](NC(N)=O)[C@]3(CC[C@@](C)([C@H]4CC[C@](O)(CC)[C@H](C)O4)O3)O2)[C@H](C)C[C@@H]1C", "SI MIA PaCa-2": 1.2}
{"smiles-text": "CC[C@@H](C(=O)[C@@H](C)[C@@H](O)[C@H](C)[C@@H]1O[C@@H]([C@@H](CC)C(=O)O)CC[C@@H]1C)[C@H]1O[C@]2(C=C[C@@H](NC(=O)OCCF)[C@]3(CC[C@@](C)([C@H]4CC[C@](O)(CC)[C@H](C)O4)O3)O2)[C@H](C)C[C@@H]1C", "SI MIA PaCa-2": 4.2}

Attention now turns to another entry.
Could you please provide reported SI MIA PaCa-2 for CC[C@@H](C(=O)[C@@H](C)[C@@H](O)[C@H](C)[C@@H]1O[C@@H]([C@@H](CC)C(=O)O)CC[C@@H]1C)[C@H]1O[C@]2(C=C[C@@H](NC(=O)Nc3cccc(C(F)(F)F)c3)[C@]3(CC[C@@](C)([C@H]4CC[C@](O)(CC)[C@H](C)O4)O3)O2)[C@H](C)C[C@@H]1C ? Thanks!
3.7

---

Reported SI A2780Cis values follow for various compounds
# Test system: A2780Cis (cisplatin-resistant human ovarian cancer)
# test: In vitro cytotoxicity, SRB assay, A2780Cis
# Format: cell-based
The answer should be a number; do not append a unit.

// solved cases for SI A2780Cis follow
{"compound": "CC[C@@H](C(=O)[C@@H](C)[C@@H](O)[C@H](C)[C@@H]1O[C@@H]([C@@H](CC)C(=O)O)CC[C@@H]1C)[C@H]1O[C@]2(C=C[C@@H](NC(=O)CBr)[C@]3(CC[C@@](C)([C@H]4CC[C@](O)(CC)[C@H](C)O4)O3)O2)[C@H](C)C[C@@H]1C [FLC-00501-1•Na, C20-aminosalinomycin 2-bromoacetamide]", "SI A2780Cis": 1.3}
{"compound": "CC[C@@H](C(=O)[C@@H](C)[C@@H](O)[C@H](C)[C@@H]1O[C@@H]([C@@H](CC)C(=O)O)CC[C@@H]1C)[C@H]1O[C@]2(C=C[C@@H](NC(=O)CC(C)(C)C)[C@]3(CC[C@@](C)([C@H]4CC[C@](O)(CC)[C@H](C)O4)O3)O2)[C@H](C)C[C@@H]1C [FLC-00534-1•Na]", "SI A2780Cis": 50.7}
{"compound": "CC[C@@H](C(=O)[C@@H](C)[C@@H](O)[C@H](C)[C@@H]1O[C@@H]([C@@H](CC)C(=O)O)CC[C@@H]1C)[C@H]1O[C@]2(C=C[C@@H](NC(=O)OC(CCl)CCl)[C@]3(CC[C@@](C)([C@H]4CC[C@](O)(CC)[C@H](C)O4)O3)O2)[C@H](C)C[C@@H]1C [FLC-00440-1•Na]", "SI A2780Cis": 26.1}
{"compound": "CC[C@@H](C(=O)[C@@H](C)[C@@H](O)[C@H](C)[C@@H]1O[C@@H]([C@@H](CC)C(=O)O)CC[C@@H]1C)[C@H]1O[C@]2(C=C[C@@H](NC(=O)OC(C)(C)C#N)[C@]3(CC[C@@](C)([C@H]4CC[C@](O)(CC)[C@H](C)O4)O3)O2)[C@H](C)C[C@@H]1C [FLC-00551-1•Na]", "SI A2780Cis": 12.5}

Could you please provide reported SI A2780Cis for CC[C@@H](C(=O)[C@@H](C)[C@@H](O)[C@H](C)[C@@H]1O[C@@H]([C@@H](CC)C(=O)O)CC[C@@H]1C)[C@H]1O[C@]2(C=C[C@@H](NC(=O)C(=O)NCc3ccccc3Cl)[C@]3(CC[C@@](C)([C@H]4CC[C@](O)(CC)[C@H](C)O4)O3)O2)[C@H](C)C[C@@H]1C [FLC-00477-1•Na] ? Thanks!
40.4

Could you please provide reported SI A2780Cis for CC[C@@H](C(=O)[C@@H](C)[C@@H](O)[C@H](C)[C@@H]1O[C@@H]([C@@H](CC)C(=O)O)CC[C@@H]1C)[C@H]1O[C@]2(C=C[C@@H](NC(=O)c3ccccc3Cl)[C@]3(CC[C@@](C)([C@H]4CC[C@](O)(CC)[C@H](C)O4)O3)O2)[C@H](C)C[C@@H]1C [FLC-00462-1•Na] ? Thanks!
24.5

Could you please provide reported SI A2780Cis for CC[C@@H](C(=O)[C@@H](C)[C@@H](O)[C@H](C)[C@@H]1O[C@@H]([C@@H](CC)C(=O)O)CC[C@@H]1C)[C@H]1O[C@]2(C=C[C@@H](NC(=O)C(C)(C)C)[C@]3(CC[C@@](C)([C@H]4CC[C@](O)(CC)[C@H](C)O4)O3)O2)[C@H](C)C[C@@H]1C [FLC-00550-1•Na] ? Thanks!
42.1

Could you please provide reported SI A2780Cis for CC[C@@H](C(=O)[C@@H](C)[C@@H](O)[C@H](C)[C@@H]1O[C@@H]([C@@H](CC)C(=O)O)CC[C@@H]1C)[C@H]1O[C@]2(C=C[C@@H](NC(=O)OCCOc3ccccc3)[C@]3(CC[C@@](C)([C@H]4CC[C@](O)(CC)[C@H](C)O4)O3)O2)[C@H](C)C[C@@H]1C [FLC-00460-1•Na] ? Thanks!
94.4

Could you please provide reported SI A2780Cis for CC[C@@H](C(=O)[C@@H](C)[C@@H](O)[C@H](C)[C@@H]1O[C@@H]([C@@H](CC)C(=O)O)CC[C@@H]1C)[C@H]1O[C@]2(C=C[C@@H](NC(=O)OC3CCOCC3)[C@]3(CC[C@@](C)([C@H]4CC[C@](O)(CC)[C@H](C)O4)O3)O2)[C@H](C)C[C@@H]1C [FLC-00580-1•Na] ? Thanks!
94.4

Could you please provide reported SI A2780Cis for CC[C@@H](C(=O)[C@@H](C)[C@@H](O)[C@H](C)[C@@H]1O[C@@H]([C@@H](CC)C(=O)O)CC[C@@H]1C)[C@H]1O[C@]2(C=C[C@@H](NC(=O)NCCc3cccnc3)[C@]3(CC[C@@](C)([C@H]4CC[C@](O)(CC)[C@H](C)O4)O3)O2)[C@H](C)C[C@@H]1C [FLC-00567-1•Na] ? Thanks!
54.2
